- Experiment description: HepG2 cytotoxicity, primary screen, cytotoxicity control for P. falciparum antimalarial project, cell-based, ATP luminescence (AID 2303);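 note: 0% = DMSO wells and 100% = digitonin-killed cells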
- Particulars: HepG2 viability, 24-48 h, at 10 µM
Activity calls are given as the source filed them.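 Rule for the calls: active = inhibition above 50%; inactive = the rest.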
Allowed answers: yes = active, no = inactive

Use the examples below as a reference point.
- Molecule: "COc1cc2ncnc(Nc3ccc(OC(F)(F)c4ccccc4)cc3)c2cc1OC"
  Label class: "no"
- Molecule: "COc1ccc(CNCc2ccc(-c3ccc(CNCCc4ccccc4)cn3)cc2)cn1"
  Label class: "no"

Input line: GET /call?item= CC(C)(CN)c1cc(-c2ccc(Cl)c(O)c2)c(-c2ccncc2)o1 returns the recorded outcome of this test.
Output line: no

Input line: GET /call?item= O=C(Nc1cccc(-c2nn3ncccc3c2-c2ccnc(Nc3cccc(-c4cnco4)c3)n2)c1)c1c(F)cccc1F returns the recorded outcome of this test.
Output line: yes

Input line: GET /call?item= COc1ccc(C2NCCc3c2[nH]c2ccccc32)cc1CN1CCN(c2ccc(F)cc2)CC1 (stereo not given) returns the recorded outcome of this test.
Output line: no

====

- Test system: F380Y/beta1
- Experiment description: modulators of BK channel variants, profiling panel, selectivity assay, cell-based, U2OS BacMam, thallium flux, beta subunits (AID 1259406);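 note: initial slope of Thallos dye fluorescence rise after thallium is added; log ratio against the mean of 0.3% DMSO vehicle wells on the same plate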
- Particulars: at 30 µM
Calls of active or inactive are those of the source.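 The calls were made as follows: active = thallium flux through the channel raised or lowered by more than 3 SD from vehicle-only wells, actives on both sides; inactive = the rest.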
Allowed answers: 1.0 (active), 0.0 (inactive)

Use the examples below as a reference point.
- Compound: "Cc1cc2nccc(-c3cccnc3)n2n1"
  Label class: 0.0
- Compound: "CN1CCC[C@H]1c1cccnc1"
  Label class: 0.0
- Compound: "CSc1nc(C=Nc2cccc(Cl)c2)c(O)n1Cc1cccc(Cl)c1"
  Label class: 1.0

Input line: GET /call?item= COC(=O)c1cc(-c2nc(-c3ccc(Cl)cc3Cl)cs2)c(SC)s1 returns the recorded outcome of this test.
Output line: 0.0

Input line: GET /call?item= CCOC(=O)c1ccc(N2CCOCC2)c(N=Cc2cc(Cl)cc(Cl)c2O)c1 returns the recorded outcome of this test.
Output line: 1.0

Input line: GET /call?item= O=C(CSCc1csc2ccccc12)NCc1ccc2c(c1)OCO2 returns the recorded outcome of this test.
Output line: 0.0

Input line: GET /call?item= O=C1c2cccc3c(Sc4ccccc4)ccc(c23)C(=O)N1CCc1ccccn1 returns the recorded outcome of this test.
Output line: 0.0

Input line: GET /call?item= Cc1cc(NC(=O)Nc2nc(-c3ccc(C)c(Cl)c3)c(C)s2)c(C(F)(F)F)o1 returns the recorded outcome of this test.
Output line: 0.0

Input line: GET /call?item= O=c1[nH]c2ccccc2c2ccccc12 returns the recorded outcome of this test.
Output line: 0.0

Input line: GET /call?item= O=C(NC(=O)C12CC3CC(CC(C3)C1)C2)Nc1ccc(Cl)cc1 returns the recorded outcome of this test.
Output line: 0.0

Input line: GET /call?item= O=C1CCC(=O)N1c1ccc(S(=O)(=O)NCCCN2CCN(Cc3ccccc3)CC2)cc1 returns the recorded outcome of this test.
Output line: 0.0

Input line: GET /call?item= Cc1cc(=O)oc2cc(NC(=O)C3CCC(=O)N3)ccc12 (centres undefined) returns the recorded outcome of this test.
Output line: 0.0

Input line: GET /call?item= CON=C(C(=O)N[C@@H]1C(=O)N2C(C(=O)O)=C(COC(N)=O)CS[C@H]12)c1ccco1 returns the recorded outcome of this test.
Output line: 0.0

Input line: GET /call?item= CCCCC(=O)OC1(C(=O)CO)CCC2C3CCC4=CC(=O)CCC4(C)C3C(O)CC21C (centres undefined) returns the recorded outcome of this test.
Output line: 1.0

Input line: GET /call?item= CC(=O)OCC(OC(C)=O)C(OC(C)=O)C(OC(C)=O)C(C#N)OC(C)=O (centres undefined) returns the recorded outcome of this test.
Output line: 0.0

Input line: GET /call?item= CC12CCC(=O)C=C1CCC1C2CCC2(C)C1CCC2(O)C(=O)CO (centres undefined) returns the recorded outcome of this test.
Output line: 0.0

Input line: GET /call?item= O=C(c1ncoc1-c1ccccc1)N(Cc1ccccn1)Cc1ccccn1 returns the recorded outcome of this test.
Output line: 0.0

Input line: GET /call?item= O=C(ON(C(=O)c1ccc(F)cc1)C1C2CC3CC(C2)CC1C3)c1ccc(F)cc1 (centres undefined) returns the recorded outcome of this test.
Output line: 0.0

Input line: GET /call?item= CC1CNc2c(cccc2S(=O)(=O)N[C@@H](CCCN=C(N)N)C(=O)N2CC[C@@H](C)C[C@@H]2C(=O)O)C1 (some centres undefined) returns the recorded outcome of this test.
Output line: 0.0

====

- Experiment description: antimalarial activity against Dd2 strain (AID 2302);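 note: 0% = DMSO untreated growth and 100% = chloroquine plus artemisinin killed control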
- Particulars: P. falciparum Dd2 in RBCs, LDH growth readout, 72 h; at 2 µM
Activity calls are given as the source filed them.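 Rule for the calls: active = growth inhibition above 50% at the single 2 µM test dose, taken to imply half-maximal potency below 2 µM; inactive = the rest.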
Allowed answers: active, inactive

- Compound: "FC(F)(F)c1ccc2nc(-c3cccc(-c4ccc(CNCc5cnn(-c6ccccc6)n5)cc4)c3)[nH]c2c1"
  Label class: "active"
- Compound: "CCN(CC)CCNC(=O)c1ccc(NC(=O)c2cc(-c3ccncc3)nc3ccccc23)cc1"
  Label class: "inactive"
- Compound: "COC(=O)Cn1c(C2CCN(CC3CCC(NC(=O)/C=C/c4ccc(Cl)c(Cl)c4)CC3)CC2)nc2ccccc21 (centres undefined)"
  Label class: "inactive"

Input line: GET /call?item= O=C(NNC(=O)c1ccc(CCN2CCC(c3nc(COCC(F)(F)F)c(-c4ccc(F)cc4)o3)CC2)cc1)Nc1ccc(Oc2ccccc2)cc1 returns the recorded outcome of this test.
Output line: active

Input line: GET /call?item= O=C(c1ccco1)N1CCN(c2ccc([N+](=O)[O-])c(NC3CC3)c2)CC1 returns the recorded outcome of this test.
Output line: active

Input line: GET /call?item= CN(C)Cc1ccc(-c2ccc3c(Nc4ccc(Oc5ccccn5)cc4)ccnc3c2)o1 returns the recorded outcome of this test.
Output line: active

Input line: GET /call?item= NCCCOc1cnc(-c2ccccc2)c2nc(-c3nonc3N)n(CCc3ccccc3)c12 returns the recorded outcome of this test.
Output line: active

Input line: GET /call?item= Cc1cc(C(=O)Nc2ccc3c(ccn3C3CCCN(Cc4ccc(C(F)(F)F)cc4F)CC3)c2)no1 (centres undefined) returns the recorded outcome of this test.
Output line: active

Input line: GET /call?item= CCOc1ccccc1C(=O)Nc1cccc(-c2nc3ncccn3c2C)c1 returns the recorded outcome of this test.
Output line: active

Input line: GET /call?item= CCCN(CCC)S(=O)(=O)c1ccc(C(=O)Nc2nc3ccc(-c4cc(=O)[nH]c(Nc5ccccc5Cl)n4)cc3[nH]2)cc1 returns the recorded outcome of this test.
Output line: active

Input line: GET /call?item= Fc1ccc2nc(-c3cccc(-c4ccc(CN5CCN(CCN6CCOCC6)CC5)cc4)c3)[nH]c2c1 returns the recorded outcome of this test.
Output line: active

Input line: GET /call?item= Cn1cc(-c2ccnc3[nH]c(-c4cccc(CNC5CCC(O)CC5)c4)cc23)cn1 (centres undefined) returns the recorded outcome of this test.
Output line: active

Input line: GET /call?item= CCCOc1ccc(CNCCCCCCNCc2ccc(OCCC)c3ccccc23)c2ccccc12 returns the recorded outcome of this test.
Output line: active

Input line: GET /call?item= CN(C)S(=O)(=O)n1ncc2c3c(N)nc(N)nc3ccc21 returns the recorded outcome of this test.
Output line: inactive

====

- Experiment description: sensitizers of A549 cells to miR-34 induction, primary screen, imaging, A549 dox-inducible miR-34, nuclei and caspase counts (AID 1347080)
- Particulars: A549 miR-34 inducible, Hoechst nuclei count, 48 h; hits give low values; cell number ratio, induced over uninduced
Assay readout: fold change
Answers are plain numbers.

Answered cases to consult:
- Compound: "CC1(C)C2CC[C@]3(C)C(C(=O)C=C4[C@@H]5C[C@@](C)(C(=O)O)CC[C@]5(C)CC[C@]43C)[C@@]2(C)CC[C@@H]1OC(=O)CCC(=O)O (stereo partly specified)"
  fold change: 0.887
- Compound: "CO[C@@H]1[C@@H](O[C@@H]2O[C@H](C)[C@@H](O[C@H]3C[C@@](C)(O)[C@H](O)[C@H](C)O3)[C@H](N(C)C)[C@H]2O)[C@@H](CC=O)C[C@@H](C)[C@@H](O[C@H]2CC[C@H](N(C)C)[C@@H](C)O2)/C=C/C=C/C[C@H](C)OC(=O)C[C@H]1O"
  fold change: 0.795
- Compound: "CCC(=O)O[C@]1(C(=O)CCl)[C@@H](C)CC2C3CCC4=CC(=O)C=C[C@]4(C)[C@@]3(F)[C@@H](O)C[C@@]21C (stereo partly specified)"
  fold change: 0.913
- Compound: "CC(=O)Oc1cc2c(s1)CCN([C@H](C(=O)C1CC1)c1ccccc1F)C2"
  fold change: 0.848
- Compound: "C[C@H]1CC2C([C@@H](O)C[C@@]3(C)C2CC[C@]3(O)C(=O)CO)[C@@]2(C)C=CC(=O)C=C12 (stereo partly specified)"
  fold change: 0.922
- Compound: "C#C[C@]1(O)CCC2C3CCC4=Cc5oncc5C[C@]4(C)C3CC[C@@]21C (stereo partly specified)"
  fold change: 0.952
- Compound: "CC12CCC3C(=CCc4cc(O)ccc43)C1CCC2=O (stereo unspecified)"
  fold change: 0.897
- Compound: "CC(C)(O/N=C(\\C(=O)N[C@@H]1C(=O)N2C(C(=O)[O-])=C(C[n+]3ccccc3)CSC12)c1csc(N)n1)C(=O)O (stereo partly specified)"
  fold change: 0.922

Report fold change for every entry below.
1. Cc1cc2nc3c(=O)[nH]c(=O)nc-3n(C[C@@H](O)[C@@H](O)[C@@H](O)COP(=O)(O)O)c2cc1C
2. COc1cc(/C=C/C(=O)N2CCC=CC2=O)cc(OC)c1OC
3. C[C@@H]1CC2C3C[C@H](F)C4=CC(=O)C=C[C@]4(C)[C@@]3(F)[C@@H](O)C[C@]2(C)[C@@]1(O)C(=O)COC(=O)C(C)(C)C (stereo partly specified)

Output line:
1: 0.895; 2: 0.965; 3: 0.838
